test system: Mycobacterium tuberculosis standard strain H37Rv; experiment: Microplate Alamar Blue Assay (MABA), minimum inhibitory concentration; type: cell-based; conditions: Mycobacterium tuberculosis, H37RV
Where a name gives a salt, the structure may show the parent alone.
Assay metric: MIC (µg/mL)
Please state the figure in µg/mL; there is no need to write the unit.

{"columns": ["Molecule", "Measurement"],
 "data": [
  ["CC(C)=CCC/C(C)=C/CN(CCN(Cc1ccccc1)C1C2CC3CC(C2)CC1C3)Cc1ccccc1 (centres unmarked)", 30.8],
  ["CCCCCCNCCNC1C2CC3CC(C2)CC1C3 (centres unmarked) [XHJ-5-5, dihydrochloride]", 0.982],
  ["CCCCCCCCCCC(=O)N(C/C=C(\\C)CCC=C(C)C)CCNC1C2CC3CC(C2)CC1C3 (centres unmarked)", 2.84],
  ["COc1cc(C(=O)N(C/C=C(\\C)CCC=C(C)C)CCNC2C3CC4CC(C3)CC2C4)cc(OC)c1OC (centres unmarked)", 3.91],
  ["CC(C)=CCC/C(C)=C/C(=O)NCCNC1C2CC3CC(C2)CC1C3.Cl (centres unmarked)", 7.75],
  ["CC(C)=CCC/C(C)=C/CN(CCNC1C2CC3CC(C2)CC1C3)C(=O)CCc1c[nH]c2ccccc12 (centres unmarked)", 1.96]
]}

Next, consider the following molecule.
Input: I am curious: what MIC value has been reported for CCS(=O)(=O)N(C/C=C(\C)CCC=C(C)C)CCNC1C2CC3CC(C2)CC1C3.Cl (centres unmarked) ?
Output: 6.96
